# pKd per entry
# Study System: T1, GFP-9S library array, motif 4 ND N98H;D124F (synthetic construct, N98H;D124F)
# T1 chain: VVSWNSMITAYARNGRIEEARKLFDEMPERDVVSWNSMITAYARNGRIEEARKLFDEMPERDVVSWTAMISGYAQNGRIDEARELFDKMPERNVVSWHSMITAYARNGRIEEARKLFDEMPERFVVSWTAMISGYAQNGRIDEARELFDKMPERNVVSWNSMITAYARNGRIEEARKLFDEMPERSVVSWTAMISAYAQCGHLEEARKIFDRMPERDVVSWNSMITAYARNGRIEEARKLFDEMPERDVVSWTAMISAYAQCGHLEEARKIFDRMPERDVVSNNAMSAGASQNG
# Method: high-throughput RNA pulldown from lysate on Ni-NTA beads; HRP: 50 mM Tris pH 8, 150 mM NaCl, 1 mM beta-mercaptoethanol, 50 ug/ml BSA, 3 ug/ml yeast RNA, 0.5% heparin; ITC and FP: Tris pH 8, 200 mM KCl, 5% glycerol; MST: 50 mM Tris pH 8, 200 mM NaCl, 1 mM DTT, BSA, heparin, 0.05% Tween 20
# Assay Context: tags: N-terminal His-eGFP; label: 5' Cy5
pKd: −log10 of the molar value.

{"Binder": "AUUAGACGUGA (ssRNA) [Cy5-rpoA-G]", "pKd": 6.87}
{"Binder": "AUUACACGUGA (ssRNA) [Cy5-rpoA]", "pKd": 6.85}
